- ASSAY OVERVIEW: Comparison of solubility of the compounds
- Type: physicochemical
- EXPERIMENTAL PARAMETERS: buffer pH 4.5, aqueous buffer, thermodynamic from solid; buffer with pH = 4.5; read-out: Solubility
RECORDED ENDPOINT: Solubility (µg/mL)

molecule="O=c1ccc2ccc(CCN3CCN(c4cccc5sccc45)CC3)cc2[nH]1 [Compound Z]" data_value=0.7
